Protocol: Cycloheximide Counterscreen for Small Molecule Inhibitors of Shiga Toxin; further: read at 38.3 µM for the half of the compounds with a filed dose; 0% is about no effect
Condition: cell reporter, cycloheximide protein synthesis inhibition counterscreen; active compounds read high
The whole screen tested about 300,000 compounds, of which about 37,000 (12%) were called active. Shown is part of a subset that was picked to be rich in actives.
Readout name: max response (%)

Compound	Unit abbreviation	Recorded value
CC(NS(=O)(=O)c1ccc(Br)cc1)C(=O)NCC1CCCO1 (stereo not drawn)	%	-1.6
COc1cccc(-n2nc(C(=O)N3CCN(Cc4ccccc4)CC3)c3ccccc3c2=O)c1	%	1.57
CCn1c(O)c(N=NC(=O)c2cccc(S(=O)(=O)N3CCCCC3)c2)c2ccccc21	%	-2.88
CCOc1ccc(N(C)Cc2cc(=O)oc3ccc(OC)cc23)cc1	%	-1.56
COc1ccc(N2CCN(C(=O)c3ccc(N4CCCCS4(=O)=O)cc3)CC2)cc1	%	-2.57
CC(=O)NC1=NN(C(C)=O)C(C)(c2ccc(Cl)s2)S1 (stereo not drawn)	%	-1.1
CCOC(=O)c1c(NC(=S)NC(=O)/C=C/c2cccs2)sc(C)c1C	%	-0.873
CCN(CCn1cccn1)Cc1nc(-c2ccc(C(=O)OC)cc2)no1	%	-4.94
O=C(C1CC(=O)N(c2ccc(Br)cc2)C1)N1CCCC1 (stereo not drawn)	%	4.73
C/C(=N/OC(=O)c1ccc(Br)cc1)c1ccc(C)cc1	%	4.97
Nc1nnnn1CC(=O)N/N=C/c1ccc(-c2cccc(Cl)c2)o1	%	12.6
O=S(=O)(c1ccccc1)N1CN(Cc2ccc(F)cc2)c2nc3ccccc3nc21	%	19.8
Cc1cc2c(cc1C)[n+](C)cn2CC(O)COCC1CC=CCC1 (stereo not drawn)	%	-1.8
CCOc1ccc(N=Cc2c(O)n(-c3cccc(C)n3)c(=O)c3ccccc23)cc1	%	9.6
COc1cc(CN(C)Cc2nc3cc(C(F)(F)F)ccc3c(=O)[nH]2)ccc1OC(F)F	%	1.37
COc1ccc(CC(NC(C)=O)C(=O)NC2CCN(C(=O)c3ccc(Cl)cc3)CC2)cc1 (stereo not drawn)	%	-8.8
CC1Cc2ccccc2N1C(=O)CSc1nnc(C2CC2)n1C (stereo not drawn)	%	-2.64
COC(=O)N/N=C/c1ccc(-c2ccc(Cl)c(Cl)c2)o1	%	51.5
COC(=O)c1ccc(CSc2nnc(N)s2)o1	%	12.5
Cc1c(C2=CCN(S(=O)(=O)c3ccc(Cl)cc3)CC2)c2ccccc2n1C	%	-3.88
COc1ccc(CNC(=O)[C@H](Cc2c[nH]c3ccccc23)NC(C)=O)cc1OC	%	-3.86
Cc1cc(NC(=O)Nc2c[nH]c(=O)[nH]c2=O)ccc1Br	%	9
O=C(N/N=C\c1ccc(-c2ccc(Cl)c(Cl)c2)o1)C(=O)N1CCCC1	%	-1.36
COc1cc(C(=O)NCc2cc3cc(Cl)ccc3n2C)cc(OC)c1OC	%	9.33
CCOc1ccc(NC(=O)CN(C)CC(=O)Nc2cccc(Cl)c2C)cc1OCC	%	-1.94
CCOC(=O)c1sc(=NC(=O)/C=C/c2cccs2)n(C)c1C	%	45
Cc1onc(-c2ccc(Cl)cc2)c1-c1ccnn1S(=O)(=O)c1ccc(Cl)cc1	%	9.73
C/C(=N\NC(=O)Cc1ccc(Cl)cc1)c1ccccn1	%	-1.28
Cc1nn(CC(=O)NCCc2ccccc2)c(=O)c2cc3occc3n12	%	-3.95
CCCCn1c(N)c(N(CC)C(=O)c2ccccc2C(F)(F)F)c(=O)[nH]c1=O	%	-3.22
CN(NC(=O)c1ccccc1F)c1nc(C(F)(F)F)nc2ccccc12	%	-3.39
COc1ccc(S(=O)(=O)N2CN(CCc3ccc(OC)c(OC)c3)c3nc4ccccc4nc32)cc1	%	-0.593
COc1ccc(-n2cc(-c3ccccc3)c3c(=S)nc[nH]c32)cc1	%	-2.8
CC(=O)NC(=S)Nc1ccc(NC(=S)NC(=O)c2ccc([N+](=O)[O-])cc2)cc1	%	10.5
CCCOc1ccc(C(=O)C(CCC(CNCC)C(=O)c2ccc(OCCC)cc2)CNCC)cc1 (stereo not drawn)	%	-10
O=C(Nc1ccc(-c2ccc3nncn3n2)cc1)C1CCCCC1	%	16
CN(CC1CCCO1)S(=O)(=O)c1ccc(C(=O)Nc2ccc([N+](=O)[O-])cc2)cc1 (stereo not drawn)	%	-2.48
CC(=O)Nc1ccc(S(=O)(=O)Nc2cc(C)cn(Cc3ccc(C)cc3)c2=O)cc1	%	10.7
COc1ccc(-c2cn(-c3ccc(OC)cc3)c(=S)[nH]2)cc1	%	37.9
Cc1ccc(C(=O)OC2CCCN(C)C2)cc1 (stereo not drawn)	%	6.14
COC(=O)c1ccc(CSc2ccccc2C)o1	%	-1.75
O=[N+]([O-])c1cc(Cl)cc(/C=N/NC(=S)Nc2cc(S(=O)(=O)N3CCOCC3)ccc2Cl)c1O	%	6.73
CC(C(=O)N=Nc1c(O)n(C)c2ccc(Br)cc12)n1cnc2ccccc2c1=O (stereo not drawn)	%	1.79
